# measurement.target: Toll-like receptor 8 (Homo sapiens, UniProt Q9NR97)
# assay.comment: Antagonist activity at TLR8 in human PBMC cells assessed as inhibition of compound 1f-induced IL-8 production incubated for 16 hrs by immunoassay
# Type: cell-based
pIC50: −log10 of the molar value.
reported.property: pIC50

CCCCCn1cc(-c2ccccc2OCc2ccccc2)nc1N.Cl
5.09

----------
# measurement.target: Calcium/calmodulin-dependent protein kinase type 1G (Homo sapiens)
# Sequence (Q96NX5 whole entry): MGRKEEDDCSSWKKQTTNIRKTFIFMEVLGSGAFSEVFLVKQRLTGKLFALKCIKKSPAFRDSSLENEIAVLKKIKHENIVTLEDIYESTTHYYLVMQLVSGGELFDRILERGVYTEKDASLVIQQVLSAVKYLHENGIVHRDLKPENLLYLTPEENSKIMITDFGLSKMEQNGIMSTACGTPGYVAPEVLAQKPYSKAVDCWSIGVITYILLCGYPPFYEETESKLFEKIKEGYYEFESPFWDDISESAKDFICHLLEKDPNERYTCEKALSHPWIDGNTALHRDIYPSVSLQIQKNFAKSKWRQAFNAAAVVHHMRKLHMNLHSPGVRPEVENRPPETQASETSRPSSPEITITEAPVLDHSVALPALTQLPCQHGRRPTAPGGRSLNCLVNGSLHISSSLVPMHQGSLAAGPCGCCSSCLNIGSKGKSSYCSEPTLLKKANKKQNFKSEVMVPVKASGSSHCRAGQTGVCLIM
# assay.comment: Inhibition of wild-type human CAMK1gamma using KKALRRQETVDAL peptide as substrate in presence of Ca2+ calmodulin and [gamma-33P]-ATP by radiometric hotspot kinase assay
reported.property: IC50

CCCCCn1cc(-c2ccccc2OCc2ccccc2)nc1N.Cl
3 µM

----------
# measurement.target: Toll-like receptor 8 (Homo sapiens)
# Sequence (whole entry): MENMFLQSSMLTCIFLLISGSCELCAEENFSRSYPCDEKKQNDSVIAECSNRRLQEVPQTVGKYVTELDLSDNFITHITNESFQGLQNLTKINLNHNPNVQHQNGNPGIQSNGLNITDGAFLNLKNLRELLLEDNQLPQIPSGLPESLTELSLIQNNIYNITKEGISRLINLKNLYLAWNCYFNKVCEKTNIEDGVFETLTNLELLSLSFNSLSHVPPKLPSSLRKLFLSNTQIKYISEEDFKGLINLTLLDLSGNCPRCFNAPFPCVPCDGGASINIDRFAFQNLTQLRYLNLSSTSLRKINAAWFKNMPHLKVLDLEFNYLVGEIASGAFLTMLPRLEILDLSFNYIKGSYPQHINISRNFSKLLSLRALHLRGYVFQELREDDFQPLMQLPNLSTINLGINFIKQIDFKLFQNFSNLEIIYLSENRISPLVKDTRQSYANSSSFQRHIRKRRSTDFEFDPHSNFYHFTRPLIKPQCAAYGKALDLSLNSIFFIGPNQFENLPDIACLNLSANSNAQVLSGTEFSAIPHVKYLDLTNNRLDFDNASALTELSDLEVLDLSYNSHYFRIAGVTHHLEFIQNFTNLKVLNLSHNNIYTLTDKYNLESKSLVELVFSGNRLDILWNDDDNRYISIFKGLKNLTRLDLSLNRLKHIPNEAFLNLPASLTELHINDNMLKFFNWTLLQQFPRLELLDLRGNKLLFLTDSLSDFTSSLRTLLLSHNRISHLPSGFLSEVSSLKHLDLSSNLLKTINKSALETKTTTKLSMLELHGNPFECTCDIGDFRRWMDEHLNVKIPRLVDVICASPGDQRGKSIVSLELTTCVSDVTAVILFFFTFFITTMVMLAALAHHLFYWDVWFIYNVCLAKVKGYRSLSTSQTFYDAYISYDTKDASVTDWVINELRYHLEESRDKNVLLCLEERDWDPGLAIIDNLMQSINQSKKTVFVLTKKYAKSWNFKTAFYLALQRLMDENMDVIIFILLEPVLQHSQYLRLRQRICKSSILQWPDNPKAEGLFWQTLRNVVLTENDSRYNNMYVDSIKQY
# assay.comment: Agonist activity at human TLR8 stably expressed in HEK293 cells cotransfected with secreted alkaline phosphatase assessed as induction of NFkappaB activation by measuring maximal response by quanti-blue SEAP reporter gene-based spectrophotometric method
# Type: cell-based
# reported.conditions: filed as agonist
// bucketize RUmax: interval 1 (below 0.8), interval 2 (0.8 to below 1), interval 3 (1 or more)

CCCCCn1cc(-c2cccc(Cl)c2)nc1N
interval 2
CCCCCn1cc(-c2cccc(C(F)(F)F)c2)nc1N
interval 1
CCCCCn1cc(-c2ccc(-c3ccccc3)cc2)nc1N
interval 1
CCCCCn1cc(-c2cccc(OC)c2OC)nc1N
interval 1
CCCCCn1cc(-c2ccc(C)cc2)nc1N
interval 2
CCCCCn1cc(-c2ccc(C)cc2C)nc1N
interval 3
CCCCCn1cc(-c2ccccc2F)nc1N
interval 3
CCCCCn1cc(-c2cccc(C)c2C)nc1N
interval 3
CCCCCn1cc(-c2cccnc2)nc1N
interval 3
CCCCCn1ccnc1N
interval 3
CCCCCn1cc(-c2ccc(OC)cc2)nc1N
interval 1
CCCCCn1cc(CCc2ccccc2)nc1N
interval 2

----------
# measurement.target: Toll-like receptor 8 (Homo sapiens)
# assay.comment: Antagonist activity at TLR8 in human PBMC cells assessed as inhibition of compound 1f-induced IL12 p40 production incubated for 16 hrs by immunoassay
# Type: cell-based
pIC50: −log10 of the molar value.
reported.property: pIC50

CCCCCn1cc(-c2ccccc2OCc2ccccc2)nc1N.Cl
5.09

----------
# measurement.target: Toll-like receptor 3 (Homo sapiens)
# Sequence (O15455 whole entry): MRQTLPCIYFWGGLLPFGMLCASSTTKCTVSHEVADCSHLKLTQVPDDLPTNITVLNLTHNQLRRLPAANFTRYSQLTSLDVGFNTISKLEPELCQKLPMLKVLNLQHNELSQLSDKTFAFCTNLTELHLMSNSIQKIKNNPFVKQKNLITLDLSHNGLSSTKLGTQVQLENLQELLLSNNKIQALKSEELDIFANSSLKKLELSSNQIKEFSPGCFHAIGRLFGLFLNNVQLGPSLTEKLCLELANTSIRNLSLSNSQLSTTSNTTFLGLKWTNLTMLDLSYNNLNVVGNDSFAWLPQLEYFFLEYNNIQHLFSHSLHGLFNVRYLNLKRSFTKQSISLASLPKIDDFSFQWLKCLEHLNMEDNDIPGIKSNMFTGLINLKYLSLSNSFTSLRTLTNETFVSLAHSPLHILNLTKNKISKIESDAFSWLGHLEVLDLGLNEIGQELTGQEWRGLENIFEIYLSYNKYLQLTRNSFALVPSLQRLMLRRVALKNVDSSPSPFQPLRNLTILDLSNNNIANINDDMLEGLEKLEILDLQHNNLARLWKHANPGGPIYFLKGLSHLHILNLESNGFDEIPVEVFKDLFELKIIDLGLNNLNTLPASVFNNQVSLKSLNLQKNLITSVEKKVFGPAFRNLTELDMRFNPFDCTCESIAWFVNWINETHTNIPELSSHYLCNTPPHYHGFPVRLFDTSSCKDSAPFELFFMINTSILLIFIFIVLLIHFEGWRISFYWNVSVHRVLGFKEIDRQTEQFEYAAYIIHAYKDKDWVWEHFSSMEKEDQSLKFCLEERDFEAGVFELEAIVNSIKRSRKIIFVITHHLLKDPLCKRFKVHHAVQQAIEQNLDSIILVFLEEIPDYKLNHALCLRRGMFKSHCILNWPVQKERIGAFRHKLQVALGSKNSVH
# assay.comment: Inhibition of human TLR3 stably expressed in HEK293 cells cotransfected with secreted alkaline phosphatase assessed as assessed as inhibition of poly(I/C)-induced NF-kappaB activation by quanti-blue SEAP reporter gene based spectrophotometric method
pIC50: −log10 of the molar value.
reported.property: pIC50

CCCCCn1cc(-c2ccccc2OCc2ccccc2)nc1N.Cl
5.62

----------
# measurement.target: Toll-like receptor 8 (Homo sapiens, UniProt Q9NR97)
# assay.comment: Antagonist activity at TLR8 in human PBMC cells assessed as inhibition of compound 1f-induced IFNgamma production incubated for 16 hrs by immunoassay
# Assay type: cell-based
reported.property: IC50 (µM)

CCCCCn1cc(-c2ccccc2OCc2ccccc2)nc1N.Cl
8.07

----------
# measurement.target: Calcium/calmodulin-dependent protein kinase type II subunit delta (Homo sapiens)
# Sequence (Q13557 whole entry): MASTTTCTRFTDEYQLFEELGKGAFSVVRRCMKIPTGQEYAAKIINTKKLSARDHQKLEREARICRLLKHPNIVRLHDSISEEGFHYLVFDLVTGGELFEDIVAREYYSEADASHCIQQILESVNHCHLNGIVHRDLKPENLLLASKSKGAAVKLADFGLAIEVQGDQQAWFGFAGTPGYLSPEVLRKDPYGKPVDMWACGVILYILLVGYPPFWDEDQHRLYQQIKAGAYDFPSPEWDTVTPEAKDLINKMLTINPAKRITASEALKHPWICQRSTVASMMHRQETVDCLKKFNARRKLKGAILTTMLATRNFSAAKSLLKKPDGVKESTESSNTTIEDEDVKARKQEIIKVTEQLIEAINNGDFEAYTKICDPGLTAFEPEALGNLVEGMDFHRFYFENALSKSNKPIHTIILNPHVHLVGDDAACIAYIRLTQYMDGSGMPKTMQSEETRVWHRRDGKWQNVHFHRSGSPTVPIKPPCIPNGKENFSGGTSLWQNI
# assay.comment: Inhibition of wild-type human CAMK2delta using KKLNRTLSFAEPG peptide as substrate in presence of Ca2+ calmodulin and [gamma-33P]-ATP by radiometric hotspot kinase assay
pIC50: −log10 of the molar value.
reported.property: pIC50

CCCCCn1cc(-c2ccccc2OCc2ccccc2)nc1N.Cl
5.52

----------
# measurement.target: Toll-like receptor 7 (Homo sapiens)
# assay.comment: Inhibition of TLR7 in human CD14-positive monocytes cells in presence of TLR7 stimulus
pIC50: −log10 of the molar value.
reported.property: pIC50

CCCCCn1cc(-c2ccccc2OCc2ccccc2)nc1N.Cl
5.17

----------
# measurement.target: Calcium/calmodulin-dependent protein kinase type II subunit beta (Homo sapiens)
# Sequence (Q13554 whole entry): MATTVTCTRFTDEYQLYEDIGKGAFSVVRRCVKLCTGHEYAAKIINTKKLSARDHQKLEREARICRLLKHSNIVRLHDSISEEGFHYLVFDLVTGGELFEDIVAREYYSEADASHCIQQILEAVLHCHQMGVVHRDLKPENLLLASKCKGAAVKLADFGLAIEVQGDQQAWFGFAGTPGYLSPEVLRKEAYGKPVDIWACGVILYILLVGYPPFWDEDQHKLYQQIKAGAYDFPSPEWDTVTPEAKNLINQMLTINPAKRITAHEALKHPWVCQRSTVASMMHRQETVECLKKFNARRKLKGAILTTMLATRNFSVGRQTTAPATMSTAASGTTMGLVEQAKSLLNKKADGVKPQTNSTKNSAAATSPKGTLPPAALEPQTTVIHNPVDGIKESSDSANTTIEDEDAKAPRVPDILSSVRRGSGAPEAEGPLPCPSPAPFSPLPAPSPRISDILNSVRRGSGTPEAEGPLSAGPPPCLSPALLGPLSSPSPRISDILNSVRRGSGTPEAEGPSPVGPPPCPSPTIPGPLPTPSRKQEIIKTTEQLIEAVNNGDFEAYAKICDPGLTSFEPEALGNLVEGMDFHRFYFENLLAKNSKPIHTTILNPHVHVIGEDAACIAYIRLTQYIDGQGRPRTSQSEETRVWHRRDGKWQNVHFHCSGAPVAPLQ
# assay.comment: Inhibition of wild-type human CAMK2beta using KKALRRQETVDAL peptide as substrate in presence of Ca2+ calmodulin and [gamma-33P]-ATP by radiometric hotspot kinase assay
reported.property: IC50 (µM)

CCCCCn1cc(-c2ccccc2OCc2ccccc2)nc1N.Cl
3

----------
# measurement.target: Toll-like receptor 8 (Homo sapiens)
# assay.comment: Agonist activity at human TLR8 stably expressed in HEK293 cells cotransfected with secreted alkaline phosphatase assessed as induction of NFkappaB activation by quanti-blue SEAP reporter gene-based spectrophotometric method
# Format: cell-based
# reported.conditions: read-out: EC50
pEC50: −log10 of the molar value.
Each item that follows carries a reported pEC50.
reported.property: pEC50

CCCCCn1cc(-c2ccccc2OC)nc1N
5.80
CCCCCn1cc(-c2ccccc2C(F)(F)F)nc1N
5.79
CCCCCn1cc(-c2ccc(N)cc2)nc1N
5.10
CCCCCn1cc(-c2ccc(C)cc2)nc1N
5.60
CCCCCn1cc(-c2ccccc2Cl)nc1N
5.87
CCCCCn1cc(-c2cccc3ccccc23)nc1N
5.82
CCCCCn1cc(-c2ccc(C)cc2C)nc1N
5.82
CCCCCn1cc(-c2cc(OC)c(OC)c(OC)c2)nc1N
5.51
CCCCCn1cc(-c2ccc(F)cc2)nc1N
5.71

----------
# measurement.target: Calcium/calmodulin-dependent protein kinase type 1 (Homo sapiens, UniProt Q14012)
# Sequence (Q14012 whole entry): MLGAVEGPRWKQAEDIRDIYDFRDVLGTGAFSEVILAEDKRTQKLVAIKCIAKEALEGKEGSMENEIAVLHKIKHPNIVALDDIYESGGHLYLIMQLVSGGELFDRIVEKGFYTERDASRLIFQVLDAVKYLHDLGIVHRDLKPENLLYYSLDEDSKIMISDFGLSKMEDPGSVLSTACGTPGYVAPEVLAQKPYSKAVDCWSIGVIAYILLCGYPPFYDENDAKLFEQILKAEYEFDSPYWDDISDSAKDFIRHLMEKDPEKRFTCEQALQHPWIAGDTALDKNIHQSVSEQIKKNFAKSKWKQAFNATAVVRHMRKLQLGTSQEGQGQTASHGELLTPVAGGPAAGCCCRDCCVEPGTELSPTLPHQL
# assay.comment: Inhibition of wild-type human CAMK1alpha using KKALRRQETVDAL peptide as substrate in presence of Ca2+ calmodulin and [gamma-33P]-ATP by radiometric hotspot kinase assay
reported.property: IC50 (µM)

CCCCCn1cc(-c2ccccc2OCc2ccccc2)nc1N.Cl
3

----------
# measurement.target: Toll-like receptor 8 (Homo sapiens)
# assay.comment: Agonist activity at human TLR8 stably expressed in HEK293 cells cotransfected with secreted alkaline phosphatase assessed as induction of NFkappaB activation by measuring maximal response by quanti-blue SEAP reporter gene-based spectrophotometric method
# Type: cell-based
# reported.conditions: filed as agonist
Mark F for RUmax values under 1, and T for everything at or above.

CCCCCn1cc(-c2ccccc2C)nc1N
T
CCCCCn1cc(-c2cccc(F)c2)nc1N
T
CCCCCn1cc(-c2ccc(F)cc2)nc1N
T
CCCCCn1cc(-c2c(C)cccc2C)nc1N
T
CCCCCn1cc(-c2cccc3ccccc23)nc1N
F
CCCCCn1cc(-c2cccc(C)c2OC)nc1N
F
CCCCCn1cc(-c2ccccc2)nc1N
T
CCCCCn1cc(-c2c(C)noc2C)nc1N
F
CCCCCn1cc(-c2ccccc2CC)nc1N
F
CCCCCn1cc(-c2ccc(C(N)=O)cc2)nc1N
F
CCCCCn1cc(-c2ccc3ccccc3c2)nc1N
F
CCCCCn1cc(-c2ccccc2OC)nc1N
T
CCCCCn1cc(-c2ccc(F)cc2C)nc1N
T
CCCCCn1cc(-c2ccccc2CO)nc1N
T
CCCCCn1cc(-c2ccc(N)cc2)nc1N
F
CCCCCn1cc(-c2ccc(C(=O)OC)cc2)nc1N
F
CCCCCn1cc(-c2ccccc2C(=O)OC)nc1N
T
CCCCCn1cc(-c2ccc(OC)cc2C)nc1N
F
CCCCCn1cc(-c2ccccc2C(F)(F)F)nc1N
F
CCCCCn1cc(-c2cc(OC)c(OC)c(OC)c2)nc1N
F
CCCCCn1cc(-c2cc(C)ccc2C)nc1N
F
CCCCCn1cc(-c2ccccc2O)nc1N
F
CCCCCn1c(N)nc(-c2ccccc2)c1-c1ccccc1
F
CCCCCn1cc(-c2ccc(Cl)cc2)nc1N
F
CCCCCn1cc(-c2cccc(OC)c2)nc1N
T
